B1: PBXIP1 (parent)
chain: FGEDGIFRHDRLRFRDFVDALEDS

variants of: B1; test: protein stability index of a GFP-peptide fusion (GPS, HEK-293T) (PSI 1-6); higher = more stable; conditions: c terminus: a fixed tail appended;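 further: lentivirally expressed fusions sorted by FACS into six bins by GFP to DsRed ratio, PSI derived from sequencing read proportions per bin multiplied by bin number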
Quick reference for protein stability index among some variants
Reply with the value as a number alone.

Below, 4 variants whose answers are already recorded.
G2Q: 2.66
R15L: 2.48
L12S: 2.55
V18I: 2.17

Now consider the entry below.
Query (variant): S24L ; field requested: protein stability index
2.32

Origin of the recorded values: the supplement of paper PMC10567573
